Values compiled from PubChem BioAssay.

# PROTOCOL_SUMMARY: basal S. cerevisiae growth modulation, no modifier, primary screen, OD600, strain BY4716, 24 h, basal condition (AID 1173)
# SETUP_CONDITIONS: OD600, 24 h, higher = more signal, called active from +8 up or from −8 down
EXPERIMENTAL_READOUT: z-score
// response body must contain only the number

Task: Query (molecule): `CCOC(=O)[C@H]1[C@@H]2C(=O)N3CCC[C@H]3[C@H](O[Si](C(C)C)(C(C)C)C(C)C)[C@H]2C=C2CCN(S(=O)(=O)c3ccc(C)cc3)C[C@H]21` ; field requested: z-score
Output: 0.212

Task: Lookup `COc1cc(CO)cc(I)c1O[C@H]1C=C(C(=O)NCCO)C[C@@H](NCc2ccc(F)cc2)[C@@H]1O`
Output: -3.76

Task: Similarly, `COC(=O)c1nc2oc1CC[C@@H](CO)NC(=O)N(C)Cc1cnnn1C[C@H](Cc1ccccc1)NC2=O` ?
Output: -1.07

Task: What do we get for `COC(=O)[C@@]1(Cc2ccc(F)cc2)[C@H]2c3cc(C(=O)N(C)C)n(Cc4cc(F)cc5c4OCOC5)c3C[C@H]2CN1C(=O)c1ccccc1` ?
Output: 0.434

Task: Param item: `C[N+](C)(C)CCCC[C@@H]1NC(=O)[C@H]2C[C@@H](C(=O)NCCCCCCN)[C@@H](c3ccc(O)cc3)N2C1=O`
Output: 0.252

Task: Subsequent entry: `COC(=O)[C@@]1(Cc2ccc(OC)cc2)[C@H]2c3cc(C(=O)N4CCCC4)n(Cc4cccc5ccccc45)c3C[C@H]2CN1C(=O)c1ccccc1`
Output: 1.07

Task: Similarly, `Cc1ccc(S[C@]2(C(=O)NCCCN(C)C)CC(=O)N(C3CCCCC3)[C@@H]2c2ccc(CO)cc2)cc1` ?
Output: 0.0406

Task: Likewise for `C=CCNC(=O)[C@H]1[C@@H]2C(=O)O[C@@H](c3ccccc3)[C@@H](c3ccccc3)N2[C@@H](c2ccc(O)cc2)[C@]12C(=O)N(C(=O)OCCOC)c1ccccc12` ?
Output: 0.628

Task: What do you get for `C=CC[C@]1(C(=O)O)COC(c2ccc(OCCCO)cc2)=N1` ?
Output: 0.32

Task: Please answer likewise for `C=C(/C(=C/C[C@H](OC(C)=O)c1cccc(OCCO)c1)c1cnc2ccccc2c1)C(C)C`
Output: 0.644

Task: Now the same for CC1CC/C=C\[C@H]2OC34C=CCN(C(C)C)C(=O)[C@H]3N(CCCCCCO)C(=O)[C@@H]4C2C(=O)O1 (stereo not given in full)
Output: -0.815

Task: Request: C=CCC(OC(C)=O)[C@@H]1[C@@H](N(Cc2cccc3ccccc23)C(=O)Cc2ccc(F)cc2)c2cc(OCCCO)ccc2N1C(=O)c1ccc2ccccc2n1 (stereo not given in full)
Output: 0.0526

Task: Note, next up: `C=CCNC(=O)[C@@H]1[C@H]2C(=O)O[C@H](c3ccccc3)[C@H](c3ccccc3)N2[C@H](c2ccc(O)cc2)[C@@]12C(=O)N(C(=O)OCCOC)c1ccc(C#CC3(O)CCCCCC3)cc12`
Output: 0.444

Task: Cool, now CCCCCCCCCCC(O)C1C=CC2C(=O)N(C)C(=O)C2N1Nc1ccc([N+](=O)[O-])cc1[N+](=O)[O-] (stereo not given)
Output: 0.869

Task: // repeat for `COC(=O)c1c(CC[C@@H](CO)NC(=O)N2CCC[C@H]2Cn2cc(Cc3ccccc3)nn2)oc(C(C)=O)c1C(=O)OC` and report
Output: -1.36

====

# PROTOCOL_SUMMARY: E. coli acrAB mutant growth effects, primary screen, E. coli filamentation inducers, strain DRC39, OD650, 24 h (AID 1178);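 also: growth measured as culture turbidity by optical density at 650 nm; test concentration not given here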
# SETUP_CONDITIONS: higher = more signal, called active from +8 up or from −8 down
The source made the active and inactive calls.
EXPERIMENTAL_READOUT: z-score

Task: Using the record for O=C1C2C=CC(C(O)c3ccccc3)N(Nc3ccccc3F)C2C(=O)N1c1ccccc1 (stereo not drawn) , report its z-score.
Output: -0.737 (inactive)

Task: Also, `O=C1O[C@H](c2ccccc2)[C@H](c2ccccc2)N2[C@H]1[C@@H](C(=O)NC[C@H](O)c1ccccc1)[C@]1(C(=O)Nc3ccc(C#CCCO)cc31)[C@H]2c1ccc(OCCO)cc1` please.
Output: 0.541 (inactive)

Task: How about `COCCOC(=O)N1C(=O)[C@@]2(c3cc(C#CC4=CCCCC4)ccc31)[C@H](C(N)=O)[C@H]1C(=O)O[C@H](c3ccccc3)[C@H](c3ccccc3)N1[C@@H]2c1ccccc1OCCO` ?
Output: -1.4 (inactive)

Task: Now try `COCCOC(=O)N1C(=O)[C@@]2(c3cc(C#Cc4ccc(OC)cc4)ccc31)[C@H](C(=O)Nc1nc3ccccc3s1)[C@H]1C(=O)O[C@H](c3ccccc3)[C@H](c3ccccc3)N1[C@@H]2c1ccc(OCCO)cc1` .
Output: -0.358 (inactive)

Task: Would you mind doing O=C1OCCC/C=C\[C@H]2OC34C=CCN(CCN5CCOCC5)C(=O)[C@H]3N(CCCCCCO)C(=O)[C@@H]4C12 (stereo partly drawn) as well?
Output: 0.251 (inactive)

Task: Now give it for CN(C)c1ccc(C(O)C2C=CC3C(=O)N(c4ccccc4)C(=O)C3N2Nc2ccc([N+](=O)[O-])cc2)cc1 (stereo not drawn) too.
Output: -0.876 (inactive)

Task: Another molecule to look at: `C=CCOC(=O)[C@H]1[C@@H]2C(=O)O[C@@H](c3ccccc3)[C@@H](c3ccccc3)N2[C@@H](c2ccc(OCCOC(=O)[C@@H]3C[C@@H]4C(=O)N[C@@H](CCCCNC(C)=O)C(=O)N4[C@@H]3c3ccc(O)cc3)cc2)[C@]12C(=O)Nc1ccc(I)cc12`
Output: -0.508 (inactive)

Task: Same lookup for `CCOC(=O)C[C@H]1[C@H](OC(=O)c2ccc(C(=O)c3ccccc3)cc2)[C@@H](NC(=O)Cc2ccc(OC)cc2)c2cc(OCCCO)ccc2N1C(=O)c1ccccc1` , please.
Output: -0.307 (inactive)

Task: Can you handle `CN(C)CCCNC(=O)[C@@]1(c2ccc([N+](=O)[O-])cc2)CC(=O)N(CC23CC4CC(CC(C4)C2)C3)[C@@H]1c1ccc(CO)cc1I` next?
Output: -1.46 (inactive)

Task: Same for CN1C(=O)C2C=CC(C(O)c3cccc(O)c3)N(Nc3ccccc3)C2C1=O (stereo not drawn)
Output: -1.32 (inactive)

Task: Next entry: C=CCC(OC(C)=O)[C@@H]1[C@@H](N(Cc2cc3ccccc3o2)C(=O)Cc2ccc(F)cc2)c2cc(OCCCO)ccc2N1C(=O)c1ccc2ccccc2c1 (stereo partly drawn)
Output: -0.698 (inactive)

Task: Then what about the molecule `COC(=O)c1c(CC[C@@H](CO)NC(=O)N[C@H](Cn2cc(C3(O)CCCCC3)nn2)C(C)C)oc(C(C)=O)c1C(=O)OC` ?
Output: 1.4 (inactive)

Task: Repeat for the following molecule: `Cc1ccc(S[C@]2(C(=O)O)CC(=O)N(Cc3ccccc3Cl)[C@@H]2c2ccc(CO)cc2I)cc1`
Output: 0.0071 (inactive)

====

# PROTOCOL_SUMMARY: splicing luciferase reporter signal modulators, primary screen, spliceosome inhibition project, cell-based, HEK293, splice +/- reporter (AID 1101);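 also: HEK293 cells carrying a splicing-competent luciferase reporter gene; test concentration not given here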
# SETUP_CONDITIONS: luminescence, 24 h, higher = more signal, called active from +8 up or from −8 down
Task for the reader: assign each of the following compounds its reported z-score.
Output: the number by itself.

Task: For the compound `C=CCOC(=O)[C@H]1[C@@H]2C(=O)O[C@@H](c3ccccc3)[C@@H](c3ccccc3)N2[C@@H](c2ccc(OCCOC(=O)[C@@H]3C[C@@H]4C(=O)N5CCC[C@H]5C(=O)N4[C@@H]3c3ccc(O)cc3)cc2)[C@]12C(=O)Nc1ccc(I)cc12` , what z-score is on record?
Output: 0.431

Task: Same again, this time with `COCCOC(=O)N1C(=O)[C@@]2(c3cc(C#Cc4ccc(OC)cc4)ccc31)[C@H](C(=O)Nc1nc3ccccc3s1)[C@H]1C(=O)O[C@H](c3ccccc3)[C@H](c3ccccc3)N1[C@@H]2c1ccc(OCCO)cc1`
Output: -0.653

Task: Can you handle `CCCCCCc1nc(-c2cc(C)c(OC)c(C)c2)c(C)c2c1[Si](C(C)C)(C(C)C)OC2` next?
Output: -1.9

Task: What would you report for `CCCC[C@@H]1C[C@H]1[C@@H](NC(=O)c1cccs1)c1ccc(C(F)(F)F)cc1` ?
Output: 0.101

Task: // query: C=CCC(OC(C)=O)[C@@H]1[C@@H](N(Cc2ccc(-c3cccc(C(F)(F)F)c3)o2)C(=O)c2ccc(-c3ccccc3)cc2)c2cc(OCCCO)ccc2N1C(=O)c1ccc2ccccc2n1 (stereo partly specified)
Output: 0.39

Task: Queued: `CCCC[C@@H](O)C1=C(COc2ccccc2)C[C@H]2C(=O)N(C)C(=O)[C@H]2[C@H]1CO`
Output: -1.3
